Quick reference for Kd among some binders
- TESTED_SYSTEM: T1, recombinant mouse αvβ8 (mouse, UniProt P43406 31-988; Q0VBD0 43-681, limits assumed)
- T1 construct: Soluble recombinant heterodimer used as analyte at 200 nM in BLI
- T1 sequence (P43406 31-988 limits assumed, chain 1 of 2): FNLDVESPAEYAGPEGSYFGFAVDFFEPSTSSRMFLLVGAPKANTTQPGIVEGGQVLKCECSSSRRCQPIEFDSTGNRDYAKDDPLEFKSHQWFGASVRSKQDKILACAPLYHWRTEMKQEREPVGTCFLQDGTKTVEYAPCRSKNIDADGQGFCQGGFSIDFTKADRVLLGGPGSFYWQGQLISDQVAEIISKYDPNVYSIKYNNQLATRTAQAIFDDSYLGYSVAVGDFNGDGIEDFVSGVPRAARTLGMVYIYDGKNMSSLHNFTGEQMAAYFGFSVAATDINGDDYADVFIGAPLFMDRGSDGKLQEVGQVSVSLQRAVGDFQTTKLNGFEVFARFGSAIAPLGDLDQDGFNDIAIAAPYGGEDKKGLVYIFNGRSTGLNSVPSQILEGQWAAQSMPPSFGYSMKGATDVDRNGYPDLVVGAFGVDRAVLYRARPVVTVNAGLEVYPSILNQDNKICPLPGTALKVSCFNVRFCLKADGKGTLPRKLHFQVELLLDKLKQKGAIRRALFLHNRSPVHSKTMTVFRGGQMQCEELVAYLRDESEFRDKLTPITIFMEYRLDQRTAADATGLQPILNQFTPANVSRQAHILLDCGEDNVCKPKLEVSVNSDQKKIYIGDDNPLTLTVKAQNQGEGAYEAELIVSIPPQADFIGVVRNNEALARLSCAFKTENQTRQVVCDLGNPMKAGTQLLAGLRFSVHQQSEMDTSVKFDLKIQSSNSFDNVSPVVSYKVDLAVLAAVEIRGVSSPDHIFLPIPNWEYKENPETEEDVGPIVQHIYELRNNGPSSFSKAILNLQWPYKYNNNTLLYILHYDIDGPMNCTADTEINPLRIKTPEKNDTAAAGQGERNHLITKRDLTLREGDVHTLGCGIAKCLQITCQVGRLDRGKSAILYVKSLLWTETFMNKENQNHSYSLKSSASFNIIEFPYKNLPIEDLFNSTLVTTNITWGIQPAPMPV
- T1 sequence (Q0VBD0 43-681 limits assumed, chain 2 of 2): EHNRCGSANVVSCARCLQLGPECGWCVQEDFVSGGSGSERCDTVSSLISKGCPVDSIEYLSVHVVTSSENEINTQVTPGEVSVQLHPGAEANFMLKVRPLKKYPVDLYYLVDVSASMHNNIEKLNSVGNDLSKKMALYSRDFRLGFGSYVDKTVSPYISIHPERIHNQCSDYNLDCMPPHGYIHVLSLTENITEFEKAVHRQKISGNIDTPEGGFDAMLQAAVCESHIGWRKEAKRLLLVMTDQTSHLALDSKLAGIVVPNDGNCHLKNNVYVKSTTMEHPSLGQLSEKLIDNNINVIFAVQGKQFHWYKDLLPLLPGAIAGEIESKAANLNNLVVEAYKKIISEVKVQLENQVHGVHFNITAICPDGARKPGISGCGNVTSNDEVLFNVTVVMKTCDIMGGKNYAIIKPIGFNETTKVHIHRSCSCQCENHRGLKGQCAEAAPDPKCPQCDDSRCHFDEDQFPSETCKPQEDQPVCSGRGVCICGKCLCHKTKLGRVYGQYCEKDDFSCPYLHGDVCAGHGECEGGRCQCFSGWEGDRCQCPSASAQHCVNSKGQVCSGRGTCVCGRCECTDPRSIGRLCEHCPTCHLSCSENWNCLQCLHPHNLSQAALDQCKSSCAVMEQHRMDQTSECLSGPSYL
- TEST_NAME: bio-layer interferometry, IgG on anti-human Fab-CH1 tips, αvβ8 200 nM
Number only, in nM; omit the unit.

The cases that follow already have their Kd on record.
ADWA16-3 (antibody, V domains shown) VH: EVQLVESGGGLVQPGGSLRLSCAVSGYIFSSYWVYWVRQAPGKGLEWVGYINPTTGYTEYADSVKGRFTISRDNSKNTLYLQMNSLRAEDTAVYYCATEGGNWEDYWGQGTLVTVSS VL: DIQMTQSPSSLSASVGDRVTITCRASQDISNYINWYQQKPGKAPKLLIYYTSRLYGGVPSRFSGSGSGTDFTLTISSLQPEDFATYYCQQFSELPRTFGQGTKVEIK
5
ADWA16-chimera (antibody, V domains shown, It was captured on anti-human Fab-CH1 tips and detected with anti-human secondary, so it has human constant regions; also called chimeric ADWA-16; chimeric version of the parent ADWA16 murine IgG) VH: QVQLQQSGAELAKPGASMKMSCKASGYTFSSYWIYWVKQRPGQGLEWIGYINPTTGYTEYNQKFRDKATLTADKSSNTAYMQLSSLTSEDSAVYYCATEGGNWEDYWGQGTTLTVSS VL: DIQMTQTTSSLSASLGDRVTISCRASQDISNYLNWYQQKPDGTVKLLIYYTSRLYSGVPSRFSGSGSGTDYSLTISNLEPKDIATYYCQQFSELPRTFGGGTKLEIK
21
ADWA16-1 (antibody, V domains shown) VH: EVQLVESGGGLVQPGGSLRLSCAVSGYIFSSYWVYWVRQAPGKGLEWVGYINPTTGYTEYADSVKGRFTISRDNSKNTLYLQMNSLRAEDTAVYYCATEGGNWEDYWGQGTLVTVSS VL: DIQMTQSPSSLSASVGDRVTITCRASQDISNYINWYQQKPGKAPKLLIYYTSRLYSGVPSRFSGSGSGTDFTLTISSLQPEDFATYYCQQFSELPRTFGQGTKVEIK
4.8

Proceeding to the next binder to report its Kd.
# Kd of ADWA16-2 (antibody, V domains shown) VH: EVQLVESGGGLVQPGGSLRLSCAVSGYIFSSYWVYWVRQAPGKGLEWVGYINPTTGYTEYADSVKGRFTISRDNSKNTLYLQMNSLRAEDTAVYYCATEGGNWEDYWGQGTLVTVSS VL: DIQMTQSPSSLSASVGDRVTITCRASKDISNYLNWYQQKPGKAPKLLIYYTSRLYSGVPSRFSGSGSGTDFTLTISSLQPEDFATYYCQQFSELPRTFGQGTKVEIK = 8.5
